ASSAY_REMARKS: Rat plasma pharmacokinetics after 10-day vehicle/SLE and digoxin or GE
Format: in vivo, Sprague-Dawley rats
PARTICULARS: female, Sprague-Dawley, rat, plasma, po, rats, control: vehicle once a day for 10 days, day 11 digoxin 0.5 mg/kg or GE 120 mg/kg ig; read-out: AUCINF_obs
// values below are reported AUC(0-inf)
Express it in ng·h/mL; write the number only.

COMPOUND	AUC(0-inf) / ng·h/mL
CC(C)=CCC[C@](C)(O[C@@H]1O[C@H](CO)[C@@H](O)[C@H](O)[C@H]1O)[C@H]1CC[C@]2(C)[C@@H]1[C@H](O)C[C@@H]1[C@@]3(C)CC[C@H](O[C@@H]4O[C@H](CO)[C@@H](O)[C@H](O)[C@H]4O[C@@H]4O[C@H](CO)[C@@H](O)[C@H](O)[C@H]4O)C(C)(C)[C@@H]3CC[C@]12C [Rd, ginsenoside Rd]	7460
CC(C)=CCC[C@](C)(O[C@@H]1O[C@H](CO[C@@H]2O[C@H](CO)[C@@H](O)[C@H](O)[C@H]2O)[C@@H](O)[C@H](O)[C@H]1O)[C@H]1CC[C@]2(C)[C@@H]1[C@H](O)C[C@@H]1[C@@]3(C)CC[C@H](O[C@@H]4O[C@H](CO)[C@@H](O)[C@H](O)[C@H]4O[C@@H]4O[C@H](CO)[C@@H](O)[C@H](O)[C@H]4O)C(C)(C)[C@@H]3CC[C@]12C [Rb1, ginsenoside Rb1]	14300
CC(C)=CCC[C@](C)(O[C@@H]1O[C@H](CO[C@@H]2OC[C@H](O)[C@H](O)[C@H]2O)[C@@H](O)[C@H](O)[C@H]1O)[C@H]1CC[C@]2(C)[C@@H]1[C@H](O)C[C@@H]1[C@@]3(C)CC[C@H](O[C@@H]4O[C@H](CO)[C@@H](O)[C@H](O)[C@H]4O[C@@H]4O[C@H](CO)[C@@H](O)[C@H](O)[C@H]4O)C(C)(C)[C@@H]3CC[C@]12C [Rb2, ginsenoside Rb2]	22600

Now take the following compound into account.
Quick note, AUC(0-inf) for C[C@H]1O[C@@H](O[C@H]2[C@@H](O)C[C@H](O[C@H]3[C@@H](O)C[C@H](O[C@H]4CC[C@@]5(C)[C@H](CC[C@@H]6[C@@H]5C[C@@H](O)[C@]5(C)[C@@H](C7=CC(=O)OC7)CC[C@]65O)C4)O[C@@H]3C)O[C@@H]2C)C[C@H](O)[C@@H]1O [Digoxin, digoxin, reference compound] landed at 76.1
